- test_method_notes: Cytotoxicity assay (MTT) on J774
- Format: cell-based, murine
- details: mouse, J774 macrophage-like murine cells; positive control; read-out: Cytotoxicity (IC50) J774
observable: IC50 (ng/mL)
Give a bare numeral; the unit ng/mL is implied.

Lab book: IC50 of CC[C@@]1(O)C(=O)OCc2c1cc1n(c2=O)Cc2cc3ccccc3nc2-1 [Camptothecin, reference compound] noted as 7.32

====

- test_method_notes: Cytotoxicity assay (MTT) on WI38
- Assay type: cell-based
- details: human, WI38 human non-cancer fibroblast cells; positive control; read-out: Cytotoxicity (IC50) WI38
observable: IC50 (µg/mL)
Could you give me the number in µg/mL? Just the number is fine.

CC[C@@]1(O)C(=O)OCc2c1cc1n(c2=O)Cc2cc3ccccc3nc2-1 [Camptothecin, reference compound] yielded IC50 of 0.035

====

- test_method_notes: Cytotoxicity assay (MTT) on WI38
- Format: cell-based
- details: human, WI38 human non-cancer fibroblast cells; pure compounds of C. longa EO; read-out: Cytotoxicity (IC50) WI38
observable: IC50 (µg/mL)
Please respond with the number in µg/mL and leave the unit unwritten.

Just so you know, measured IC50 for CC(C)=CCCC(C)c1ccc(C)cc1 (stereo not drawn) [ar-Curcumene] came out at 23.1

Entry C=C1C=CC(C(C)CCC=C(C)C)CC1 (stereo not drawn) [β-Sesquiphellandrene] , IC50 reported as 19.1

Notebook: C=C1C=CC(C(C)CC(=O)C=C(C)C)CC1 (stereo not drawn) [Curlone] , IC50 read as 43.6

====

- test_method_notes: Cytotoxicity assay (MTT) on J774
- Format: cell-based, murine
- details: mouse, J774 macrophage-like murine cells; pure compounds of C. longa EO; read-out: Cytotoxicity (IC50) J774
Please respond with reported IC50 for every item in the list.
Only the number, expressed in µg/mL, is required.

Query C=C1C=CC(C(C)CC(=O)C=C(C)C)CC1 (stereo not drawn) [Curlone] yields IC50 of 25.1

C=C1C=CC(C(C)CCC=C(C)C)CC1 (stereo not drawn) [β-Sesquiphellandrene] has a reported IC50 of 21

Sample CC(C)=CCCC(C)c1ccc(C)cc1 (stereo not drawn) [ar-Curcumene] ; IC50 observed: 24

This collection of values is drawn from paper PMC6471621.
